Each recorded value in this set is attributed to PubChem BioAssay AID1159580.

Assay: chemical genetic growth profiling, strain panel (AID 1159580);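 note: tested at 20 µM; growth read once vehicle control cultures reached saturation at 30 °C; 1 = growth at the plate median or of vehicle wells; lower values mean less growth of the strain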
Settings: S. cerevisiae deletion strains, growth OD, locus YOR184W, strain ser1, stronger effect = lower value
Among all 5,500 compounds or so, about 2,000 (36%) were called active. About 18% were inconclusive and are not listed. The list shows a part of the results.
# normalized growth listing for each entry below
Lab note: record the figure alone, no unit after it.

Reference set (4 entries):
* C=C1C(C2(C)C=CC(=O)C(C)(C)C2CC(=O)OC)CC[C@@]2(C)[C@H](c3ccoc3)OC(=O)C3OC132 (stereo partly specified) | 0.953
* CCC(=O)c1ccc2c(c1)N(CC(C)N(C)C)c1ccccc1S2 (stereo unspecified) | 1.01
* CNCCCN1c2ccccc2CCc2ccccc21 | 1.03
* Cc1cc(C)cc(OCC2CNC(=O)O2)c1 (stereo unspecified) | 1.03

For this molecule ( C=C1C2=CC(=O)O[C@@H](c3ccoc3)[C@]2(C)CCC1[C@@]1(C)C=CC(=O)C(C)(C)[C@@H]1CC(=O)OC (stereo partly specified) ), measured normalized growth is 0.992

Memo: `O=c1[nH]cnc2[nH]ncc12` , reported normalized growth: 1.01

Reported normalized growth ( CC(CN(C)C)CN1c2ccccc2Sc2ccccc21 (stereo unspecified) ) = 1.02
